# Study system: Dual 3',5'-cyclic-AMP and -GMP phosphodiesterase 11A (Homo sapiens)
# Procedure text: Inhibitory activity against phosphodiesterase 11 (PDE11) obtained from recombinant Sf9 expression
Observation type: IC50 (nM)
Numeric answer only, unit nM assumed.

CN(C)CCN1CC(=O)N2[C@H](c3ccc4c(c3)OCO4)c3[nH]c4ccccc4c3C[C@@H]2C1=O :: 53

The compound CCNC(=O)CCN1CC[C@@H](N2CC(=O)N3[C@H](c4ccc5c(c4)OCO5)c4[nH]c5ccccc5c4C[C@@H]3C2=O)C1 on Dual 3',5'-cyclic-AMP and -GMP phosphodiesterase 11A (Homo sapiens): IC50 was 4.3

The compound COc1cccc([C@@H]2c3[nH]c4ccccc4c3C[C@@H]3C(=O)N([C@@H]4CCN(Cc5ccccc5)C4)CC(=O)N23)c1 (stereo in doubt; form 2) on Dual 3',5'-cyclic-AMP and -GMP phosphodiesterase 11A (Homo sapiens): IC50 was 11.8

The compound NC(=O)CCN1CC[C@@H](N2CC(=O)N3[C@H](c4ccc5c(c4)OCO5)c4[nH]c5ccccc5c4C[C@@H]3C2=O)C1 on Dual 3',5'-cyclic-AMP and -GMP phosphodiesterase 11A (Homo sapiens): IC50 was 48

The compound O=C1[C@H]2Cc3c([nH]c4ccccc34)[C@@H](c3ccc4c(c3)OCO4)N2C(=O)CN1C1CN(Cc2ccccc2)C1 on Dual 3',5'-cyclic-AMP and -GMP phosphodiesterase 11A (Homo sapiens): IC50 was 950

====

# Study system: Dual 3',5'-cyclic-AMP and -GMP phosphodiesterase 11A (Homo sapiens, UniProt Q9HCR9)
# Sequence (Q9HCR9 whole entry): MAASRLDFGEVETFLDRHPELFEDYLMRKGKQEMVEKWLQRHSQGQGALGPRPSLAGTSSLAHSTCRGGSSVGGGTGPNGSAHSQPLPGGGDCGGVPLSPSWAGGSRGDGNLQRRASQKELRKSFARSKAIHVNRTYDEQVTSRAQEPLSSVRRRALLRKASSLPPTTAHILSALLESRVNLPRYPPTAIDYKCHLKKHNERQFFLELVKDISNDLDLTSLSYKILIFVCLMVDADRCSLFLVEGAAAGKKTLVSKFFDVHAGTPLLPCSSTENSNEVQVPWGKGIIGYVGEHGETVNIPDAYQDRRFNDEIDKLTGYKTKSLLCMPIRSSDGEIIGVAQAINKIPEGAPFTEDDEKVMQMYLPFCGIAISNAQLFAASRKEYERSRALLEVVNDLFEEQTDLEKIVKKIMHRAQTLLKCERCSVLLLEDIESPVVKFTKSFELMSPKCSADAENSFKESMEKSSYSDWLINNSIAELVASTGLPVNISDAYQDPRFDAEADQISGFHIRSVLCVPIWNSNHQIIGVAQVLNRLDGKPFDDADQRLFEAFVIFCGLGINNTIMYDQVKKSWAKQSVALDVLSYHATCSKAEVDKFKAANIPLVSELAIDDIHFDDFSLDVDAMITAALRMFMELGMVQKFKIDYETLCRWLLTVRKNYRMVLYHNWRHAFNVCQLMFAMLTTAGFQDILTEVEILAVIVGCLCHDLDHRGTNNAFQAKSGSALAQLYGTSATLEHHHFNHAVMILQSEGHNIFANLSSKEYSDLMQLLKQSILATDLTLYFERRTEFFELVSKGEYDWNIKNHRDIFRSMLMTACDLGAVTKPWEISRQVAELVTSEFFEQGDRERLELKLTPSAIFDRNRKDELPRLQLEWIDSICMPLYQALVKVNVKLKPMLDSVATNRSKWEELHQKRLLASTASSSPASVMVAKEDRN
# Procedure text: Inhibitory activity against phosphodiesterase 11 (PDE11) obtained from recombinant Sf9 expression
Observation type: IC50 (nM)
Numeric answer only, unit nM assumed.

Take a look at these entries with their results.
O=C1[C@H]2Cc3c([nH]c4ccccc34)[C@@H](c3ccc(O)nc3)N2C(=O)CN1[C@@H]1CCN(Cc2ccccc2)C1 :: 39
O=C1[C@H]2Cc3c([nH]c4ccccc34)[C@@H](c3ccc4c(c3)OCO4)N2C(=O)CN1[C@H]1CCN(Cc2ccccc2)C1 :: 85
O=C1[C@H]2Cc3c([nH]c4ccccc34)[C@@H](c3ccc4c(c3)OCO4)N2C(=O)CN1[C@@H]1CCN(CCc2ncc[nH]2)C1 :: 3.5
O=C1[C@H]2Cc3c([nH]c4ccccc34)[C@@H](c3ccc4c(c3)OCO4)N2C(=O)CN1[C@@H]1CCN(CCc2ccccn2)C1 :: 2.01
COCCCN1CC[C@@H](N2CC(=O)N3[C@H](c4ccc5c(c4)OCO5)c4[nH]c5ccccc5c4C[C@@H]3C2=O)C1 :: 22
O=C(CCN1CC[C@@H](N2CC(=O)N3[C@H](c4ccc5c(c4)OCO5)c4[nH]c5ccccc5c4C[C@@H]3C2=O)C1)N1CCC1 :: 4.7

Continue with the compound presented below.
Notebook: COc1ccc([C@@H]2c3[nH]c4ccccc4c3C[C@@H]3C(=O)N([C@@H]4CCN(Cc5ccccc5)C4)CC(=O)N23)cc1OC , IC50 read as 1000

====

Reported Selectivity ratio values are given for each entry in this list.
# Study system: cGMP-specific 3',5'-cyclic phosphodiesterase (Homo sapiens)
# Procedure text: Selectivity ratio of the compound against PDE6 to that of PED5
Output spec: single numeric token, no unit.

Take a look at these entries with their results.
Cn1ccnc1CCN1CC[C@@H](N2CC(=O)N3[C@H](c4ccc5c(c4)OCO5)c4[nH]c5ccccc5c4C[C@@H]3C2=O)C1 (stereo in doubt; form 2) :: 173
O=C1[C@H]2Cc3c([nH]c4ccccc34)[C@@H](c3ccc4c(c3)OCO4)N2C(=O)CN1[C@@H]1CCN(CCc2cccnc2)C1 :: 144
COCCCN1CC[C@@H](N2CC(=O)N3[C@H](c4ccc5c(c4)OCO5)c4[nH]c5ccccc5c4C[C@@H]3C2=O)C1 :: 188

The compound NC(=O)CCN1CC[C@@H](N2CC(=O)N3[C@H](c4ccc5c(c4)OCO5)c4[nH]c5ccccc5c4C[C@@H]3C2=O)C1 on cGMP-specific 3',5'-cyclic phosphodiesterase (Homo sapiens): Selectivity ratio was 189
